targetOrSystem: TRKA (G677C) (Homo sapiens, UniProt P04629, G667C)
Sequence (P04629 33-796 G667C limits assumed): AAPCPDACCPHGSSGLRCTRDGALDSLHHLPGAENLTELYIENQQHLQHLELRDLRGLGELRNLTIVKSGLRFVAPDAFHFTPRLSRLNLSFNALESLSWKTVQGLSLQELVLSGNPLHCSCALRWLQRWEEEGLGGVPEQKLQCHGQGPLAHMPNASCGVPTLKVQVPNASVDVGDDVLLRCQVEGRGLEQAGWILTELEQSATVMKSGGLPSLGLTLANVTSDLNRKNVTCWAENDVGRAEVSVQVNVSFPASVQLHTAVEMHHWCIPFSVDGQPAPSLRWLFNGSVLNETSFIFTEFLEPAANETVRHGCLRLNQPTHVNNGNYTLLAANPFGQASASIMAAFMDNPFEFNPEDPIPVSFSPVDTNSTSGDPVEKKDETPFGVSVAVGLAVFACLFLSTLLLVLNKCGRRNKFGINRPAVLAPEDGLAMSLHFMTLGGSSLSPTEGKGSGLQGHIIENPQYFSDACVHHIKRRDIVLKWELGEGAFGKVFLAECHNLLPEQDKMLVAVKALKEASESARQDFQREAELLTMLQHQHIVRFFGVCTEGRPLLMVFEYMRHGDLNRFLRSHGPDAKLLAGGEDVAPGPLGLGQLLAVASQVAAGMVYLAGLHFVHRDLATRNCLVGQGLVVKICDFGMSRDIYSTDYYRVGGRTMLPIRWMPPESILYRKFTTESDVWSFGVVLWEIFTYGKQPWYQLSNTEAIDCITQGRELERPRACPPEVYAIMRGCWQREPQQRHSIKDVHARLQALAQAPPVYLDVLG
protocolText: Radio-tagged HotSpot kinase assay, TRKA (G677C)
Type: biochemical
assaySetup: read-out: TRKA (G677C) (IC50/nM)
quantityName: IC50

Please review the entries below; each comes with its answer.
1. COc1ncc(F)cc1[C@@H](C)Nc1ccn2ncc(C3=NC(=O)C(C)(C)N3)c2n1 < 0.5 nM
2. CCOc1ncc(F)cc1[C@@H](C)Nc1ccn2ncc(C3=NOCCN3)c2n1 0.5 to 5 nM
3. C[C@@H](Nc1ccn2ncc(C3=NC(=O)C(C)(C)N3)c2n1)c1cc(F)cnc1OC(F)(F)F 0.5 to 5 nM

Task item: Report IC50, nothing else, for this molecule: `C[C@@H](Nc1ccn2ncc(NC3=NCC(C)(C)N3)c2n1)c1cc(F)cc(F)c1F`
Reply: 5 to 50 nM

====

targetOrSystem: ALK (G1202R) (Homo sapiens (Human), UniProt Q9UM73, G1202R)
Sequence (Q9UM73 19-1620 G1202R): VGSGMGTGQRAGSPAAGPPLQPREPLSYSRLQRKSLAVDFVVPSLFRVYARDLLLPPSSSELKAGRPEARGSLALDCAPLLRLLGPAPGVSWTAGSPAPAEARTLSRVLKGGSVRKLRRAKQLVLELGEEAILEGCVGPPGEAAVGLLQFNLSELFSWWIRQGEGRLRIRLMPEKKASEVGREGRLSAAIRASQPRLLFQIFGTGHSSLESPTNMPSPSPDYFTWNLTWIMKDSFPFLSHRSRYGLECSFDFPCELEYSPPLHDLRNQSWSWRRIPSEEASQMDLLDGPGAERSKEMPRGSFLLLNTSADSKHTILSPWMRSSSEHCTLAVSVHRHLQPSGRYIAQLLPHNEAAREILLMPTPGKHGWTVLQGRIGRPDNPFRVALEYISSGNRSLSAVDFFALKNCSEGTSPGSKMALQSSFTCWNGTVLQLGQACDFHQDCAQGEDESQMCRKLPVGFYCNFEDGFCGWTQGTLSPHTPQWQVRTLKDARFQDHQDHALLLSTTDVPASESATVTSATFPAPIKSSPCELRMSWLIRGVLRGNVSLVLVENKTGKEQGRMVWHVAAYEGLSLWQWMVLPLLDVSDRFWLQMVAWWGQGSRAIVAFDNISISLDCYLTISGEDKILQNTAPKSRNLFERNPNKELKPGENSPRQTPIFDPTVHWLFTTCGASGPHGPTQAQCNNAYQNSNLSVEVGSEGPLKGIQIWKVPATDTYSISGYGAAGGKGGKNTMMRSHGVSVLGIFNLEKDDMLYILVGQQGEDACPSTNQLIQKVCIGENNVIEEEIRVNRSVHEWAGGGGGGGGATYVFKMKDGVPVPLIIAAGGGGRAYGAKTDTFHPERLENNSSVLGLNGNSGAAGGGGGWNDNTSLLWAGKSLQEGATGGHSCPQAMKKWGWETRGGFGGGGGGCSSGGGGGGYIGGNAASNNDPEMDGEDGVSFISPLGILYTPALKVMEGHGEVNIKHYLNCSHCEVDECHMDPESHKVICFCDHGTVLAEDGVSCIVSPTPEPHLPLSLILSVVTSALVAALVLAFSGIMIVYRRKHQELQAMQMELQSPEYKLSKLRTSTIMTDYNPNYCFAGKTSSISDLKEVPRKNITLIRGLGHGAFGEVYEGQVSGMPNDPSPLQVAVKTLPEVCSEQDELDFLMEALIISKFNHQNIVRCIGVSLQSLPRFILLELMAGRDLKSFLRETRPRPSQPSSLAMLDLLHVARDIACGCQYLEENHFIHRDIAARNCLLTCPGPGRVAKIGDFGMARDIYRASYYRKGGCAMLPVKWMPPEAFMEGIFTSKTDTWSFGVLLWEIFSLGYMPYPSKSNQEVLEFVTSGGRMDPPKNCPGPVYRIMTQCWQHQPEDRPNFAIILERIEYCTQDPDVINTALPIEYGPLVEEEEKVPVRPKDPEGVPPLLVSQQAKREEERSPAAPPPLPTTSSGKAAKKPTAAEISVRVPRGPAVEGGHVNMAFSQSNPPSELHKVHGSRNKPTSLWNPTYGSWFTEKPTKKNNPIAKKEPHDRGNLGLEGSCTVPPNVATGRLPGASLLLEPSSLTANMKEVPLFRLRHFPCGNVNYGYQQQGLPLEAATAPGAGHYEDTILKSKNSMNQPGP
protocolText: Radio-tagged HotSpot kinase assay, ALK (G1202R)
Type: biochemical
quantityName: IC50

compound	IC50
CONC(=O)c1cnn2ccc(N[C@H](C)c3cc(F)cc(F)c3F)nc12 [Example 24]	50 to 500 nM

# per-item lookup of IC50; items listed below
1. CCCOC(=O)/N=C(\N)c1cnn2ccc(N[C@H](C)c3cc(F)cc(F)c3F)nc12 [Example 11]
2. C[C@@H](Nc1ccn2ncc(C3=NC(=O)C(C)(C)N3)c2n1)c1cc(F)ccc1OC(F)(F)F [Example 21]

Reply:
1: 50 to 500 nM; 2: 5 to 50 nM

Task item: Give IC50 for C[C@@H](Nc1ccn2ncc(C3=NOCCN3)c2n1)c1cc(F)cc(F)c1F [Example 3]
Reply: 0.5 to 5 nM

====

targetOrSystem: ROS1 (G2032R) (Homo sapiens (Human), UniProt P08922, G2032R)
Sequence (P08922 28-2347 G2032R): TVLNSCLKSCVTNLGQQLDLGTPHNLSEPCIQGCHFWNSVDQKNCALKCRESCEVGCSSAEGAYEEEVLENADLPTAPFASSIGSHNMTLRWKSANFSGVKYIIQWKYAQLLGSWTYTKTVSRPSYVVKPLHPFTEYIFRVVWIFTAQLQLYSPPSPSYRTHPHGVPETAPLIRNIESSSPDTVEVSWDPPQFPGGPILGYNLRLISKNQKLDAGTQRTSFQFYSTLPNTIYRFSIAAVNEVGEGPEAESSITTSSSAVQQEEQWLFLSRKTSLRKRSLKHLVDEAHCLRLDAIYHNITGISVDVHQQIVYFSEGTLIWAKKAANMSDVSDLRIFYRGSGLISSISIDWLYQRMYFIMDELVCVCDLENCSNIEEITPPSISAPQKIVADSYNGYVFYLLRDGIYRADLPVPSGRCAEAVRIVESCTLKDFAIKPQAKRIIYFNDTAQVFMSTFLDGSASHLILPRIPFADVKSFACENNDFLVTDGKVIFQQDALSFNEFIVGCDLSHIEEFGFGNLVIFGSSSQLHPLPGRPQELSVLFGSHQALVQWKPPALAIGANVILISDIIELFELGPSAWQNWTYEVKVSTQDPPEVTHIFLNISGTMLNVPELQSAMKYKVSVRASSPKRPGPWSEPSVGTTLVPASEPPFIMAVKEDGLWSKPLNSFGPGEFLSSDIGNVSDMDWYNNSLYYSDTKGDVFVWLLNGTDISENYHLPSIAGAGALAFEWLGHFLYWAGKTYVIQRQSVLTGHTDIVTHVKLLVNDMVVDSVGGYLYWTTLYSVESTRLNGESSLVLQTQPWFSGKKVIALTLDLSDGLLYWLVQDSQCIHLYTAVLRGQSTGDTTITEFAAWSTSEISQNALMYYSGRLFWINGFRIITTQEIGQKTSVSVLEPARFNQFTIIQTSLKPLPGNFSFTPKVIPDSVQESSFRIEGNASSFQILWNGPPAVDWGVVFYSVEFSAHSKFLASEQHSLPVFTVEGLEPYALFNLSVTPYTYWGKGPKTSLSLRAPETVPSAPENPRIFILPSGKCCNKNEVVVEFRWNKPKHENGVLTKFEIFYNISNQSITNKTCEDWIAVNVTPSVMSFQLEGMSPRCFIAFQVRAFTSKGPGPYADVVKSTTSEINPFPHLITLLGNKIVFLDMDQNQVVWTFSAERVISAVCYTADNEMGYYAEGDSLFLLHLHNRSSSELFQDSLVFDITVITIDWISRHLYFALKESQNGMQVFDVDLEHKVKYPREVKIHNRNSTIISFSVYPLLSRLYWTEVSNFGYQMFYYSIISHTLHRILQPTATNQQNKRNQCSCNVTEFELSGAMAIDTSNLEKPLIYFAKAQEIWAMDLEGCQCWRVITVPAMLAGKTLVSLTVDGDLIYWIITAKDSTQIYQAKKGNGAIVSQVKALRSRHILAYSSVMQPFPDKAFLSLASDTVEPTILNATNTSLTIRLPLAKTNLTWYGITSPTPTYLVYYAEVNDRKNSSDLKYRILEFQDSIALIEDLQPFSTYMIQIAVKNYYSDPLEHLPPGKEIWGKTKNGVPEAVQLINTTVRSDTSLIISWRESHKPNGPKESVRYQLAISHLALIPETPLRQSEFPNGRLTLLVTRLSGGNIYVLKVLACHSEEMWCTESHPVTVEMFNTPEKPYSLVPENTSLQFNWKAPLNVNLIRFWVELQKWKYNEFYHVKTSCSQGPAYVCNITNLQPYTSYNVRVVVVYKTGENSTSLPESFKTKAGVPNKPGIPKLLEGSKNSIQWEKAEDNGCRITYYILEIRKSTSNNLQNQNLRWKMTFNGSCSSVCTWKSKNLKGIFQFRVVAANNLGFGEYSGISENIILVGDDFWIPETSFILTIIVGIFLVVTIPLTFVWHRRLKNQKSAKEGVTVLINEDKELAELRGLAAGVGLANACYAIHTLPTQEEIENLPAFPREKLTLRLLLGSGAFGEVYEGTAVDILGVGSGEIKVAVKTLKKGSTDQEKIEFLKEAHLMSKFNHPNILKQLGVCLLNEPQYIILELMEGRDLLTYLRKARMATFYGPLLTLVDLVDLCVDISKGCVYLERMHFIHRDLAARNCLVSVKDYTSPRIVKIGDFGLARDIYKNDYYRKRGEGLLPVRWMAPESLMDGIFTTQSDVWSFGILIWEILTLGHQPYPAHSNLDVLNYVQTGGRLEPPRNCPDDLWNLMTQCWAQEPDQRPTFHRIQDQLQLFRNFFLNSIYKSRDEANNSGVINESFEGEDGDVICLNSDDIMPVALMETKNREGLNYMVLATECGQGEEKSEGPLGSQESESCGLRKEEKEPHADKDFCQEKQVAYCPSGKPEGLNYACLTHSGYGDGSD
protocolText: Radio-tagged HotSpot kinase assay, ROS1 (G2032R)
Type: biochemical
quantityName: IC50

# example entries with known answers
1. C[C@@H](Nc1ccn2ncc(C3=NOCCN3)c2n1)c1cc(F)ccc1OC(F)F < 0.5 nM
2. C[C@@H](Nc1ccn2ncc(NC3=NC(C)(C)CO3)c2n1)c1cc(F)cc(F)c1F 0.5 to 5 nM
3. COc1c(F)cc(F)cc1[C@@H](C)Nc1ccn2ncc(NC3=NC(C)(C)CO3)c2n1 5 to 50 nM
4. C[C@@H](Nc1ccn2ncc(C3=NOCCN3)c2n1)c1cc(F)cc(F)c1F < 0.5 nM
5. C[C@@H](Nc1ccn2ncc(C3=NOCCN3)c2n1)c1cc(F)ccc1C(F)F 50 to 500 nM

Dear colleague, could you please provide IC50 for the molecules listed below?
1. COc1c(F)cc(F)cc1[C@@H](C)Nc1ccn2ncc(C3=NC(=O)C(C)(C)N3)c2n1
2. CONC(=O)c1cnn2ccc(N[C@H](C)c3cc(F)cc(F)c3F)nc12

Reply:
["0.5 to 5 nM", "50 to 500 nM"]

====

Assignment: determine reported IC50 for the given molecules.
targetOrSystem: TRKA (G677C) (Homo sapiens, UniProt P04629, G667C)
protocolText: Radio-tagged HotSpot kinase assay, TRKA (G677C)
Type: biochemical
assaySetup: read-out: TRKA (G677C) (IC50/nM)
Experimental: Inhibition of protein kinase activity by compounds was carried out on the Radio-tagged HotSpot kinase experimental platform of Reaction Biology Corporation. […] Transferred the incubated reaction solution to P81 ion exchange chromatographic paper (Whatman #3698-915), eluted with […] phosphoric acid solution, and the amount of radioactive phosphorylated substrate remaining on the chromatographic paper was detected.

Guide cases for IC50, answers given:
1) C[C@@H](Nc1ccn2ncc(C3=NC(=O)C(C)(C)N3)c2n1)c1cc(F)cc(F)c1F < 0.5 nM
2) C[C@@H](Nc1ccn2ncc(C3=NOCCN3)c2n1)c1cc(F)ccc1C(F)F 50 to 500 nM
3) CCCOC(=O)/N=C(\N)c1cnn2ccc(N[C@H](C)c3cc(F)cc(F)c3F)nc12 5 to 50 nM
4) C[C@@H](Nc1ccn2ncc(C3=NN=CC(C)(C)N3)c2n1)c1cc(F)cc(F)c1F 5 to 50 nM
5) C[C@@H](Nc1ccn2ncc(C3=NC(=O)C(C)(C)N3)c2n1)c1cc(F)cnc1OCC(F)(F)F 0.5 to 5 nM

Next:
Task item: Identify IC50 associated with the molecule `C[C@@H](Nc1ccn2ncc(C3=NOCC(C)(C)N3)c2n1)c1cc(F)ccc1OC(F)F`
Reply: 5 to 50 nM
